Assay: self-splicing fitness, log relative to wild type (ln ratio); higher = more splicing; Tetrahymena group I intron in knt gene, E. coli kanamycin selection, DiMSum; sequences stand for … in CUCUCU…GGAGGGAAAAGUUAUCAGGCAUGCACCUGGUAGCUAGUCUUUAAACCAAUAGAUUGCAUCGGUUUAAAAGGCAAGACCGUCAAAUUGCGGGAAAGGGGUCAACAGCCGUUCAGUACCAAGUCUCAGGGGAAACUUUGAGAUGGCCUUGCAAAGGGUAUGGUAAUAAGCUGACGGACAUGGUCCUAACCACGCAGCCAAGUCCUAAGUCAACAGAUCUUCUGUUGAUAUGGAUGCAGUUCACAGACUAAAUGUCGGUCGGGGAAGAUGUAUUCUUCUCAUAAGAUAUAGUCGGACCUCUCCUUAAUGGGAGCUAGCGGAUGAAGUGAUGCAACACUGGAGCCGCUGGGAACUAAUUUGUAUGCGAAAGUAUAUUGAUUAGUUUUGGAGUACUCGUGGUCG;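 also: selection with 25 µg/mL kanamycin versus none on LB agar overnight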
Conditions: 37 °C
Quick reference: self-splicing fitness (ln) of the listed items.
I only need the number, thanks.

Worked cases, answers included:
sequence content	self-splicing fitness (ln)
UCACAGCAAUAUUACGCCAA	-2.74
ACGUAGCAAUAUUACGGCAA	-1.15
UAUAAGCAAUAUUACGGUUC	-1.05
GGGGAGCAAUAUUACGGGUG	-2.9
UGUCAGCAAUAUUACGUGUC	-2.37
UACAAGCAAUAUUACGCCGA	-0.999
UUCAAGCAAUAUUACGGUAC	-2.71
CAUAAGCAAUAUUACGCCAU	-2.6

Q. // self-splicing fitness (ln) lookup, key: "ACCCAGCAAUAUUACGGCCG"
A. -2.6

Q. Consider next the sequence "GUGGAGCAAUAUUACGAGCU" in the same way.
A. -2.01

Q. Consider next the sequence "ACGAAGCAAUAUUACGGGCC" in the same way.
A. -1.7

Q. Consider next the sequence "GACAAGCAAUAUUACGGUGC" in the same way.
A. -1.63

Q. Consider next the sequence "CUUAAGCAAUAUUACGUUAA" in the same way.
A. -2.63

---

Experiment: self-splicing fitness, log relative to wild type (ln ratio); higher = more splicing; Tetrahymena group I intron in knt gene, E. coli kanamycin selection, DiMSum; sequences stand for … in CUCUCU…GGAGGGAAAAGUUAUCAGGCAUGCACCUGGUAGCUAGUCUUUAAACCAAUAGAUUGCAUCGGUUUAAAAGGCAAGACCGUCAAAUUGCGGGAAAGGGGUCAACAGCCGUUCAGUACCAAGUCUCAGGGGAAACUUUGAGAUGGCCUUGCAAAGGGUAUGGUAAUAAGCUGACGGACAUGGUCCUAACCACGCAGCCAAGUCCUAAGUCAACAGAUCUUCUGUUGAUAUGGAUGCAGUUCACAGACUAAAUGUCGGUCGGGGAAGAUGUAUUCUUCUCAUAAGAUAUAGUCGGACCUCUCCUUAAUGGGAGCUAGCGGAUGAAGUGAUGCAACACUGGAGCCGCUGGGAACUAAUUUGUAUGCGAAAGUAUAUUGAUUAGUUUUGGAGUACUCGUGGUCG
Details: 37 °C
readout: self-splicing fitness (ln)
I only need the number, thanks.

sequence content	self-splicing fitness (ln)
CCUGAGCAAUAUUACGACGU	-0.0399
CUCCAGCAAUAUUACGUUCU	-3.65
GCAUAGCAAUAUUACGCGUA	-0.403

Q. // self-splicing fitness (ln) lookup, key: "AGUUAGCAAUAUUACGUCCG"
A. -0.0933

Q. Consider next the sequence "CCAAAGCAAUAUUACGGAUU" in the same way.
A. -3.55

Q. Consider next the sequence "AGAAAGCAAUAUUACGGUGA" in the same way.
A. -0.655

---

Assay: self-splicing fitness, log relative to wild type (ln ratio); higher = more splicing; Tetrahymena group I intron in knt gene, E. coli kanamycin selection, DiMSum; sequences stand for … in CUCUCU…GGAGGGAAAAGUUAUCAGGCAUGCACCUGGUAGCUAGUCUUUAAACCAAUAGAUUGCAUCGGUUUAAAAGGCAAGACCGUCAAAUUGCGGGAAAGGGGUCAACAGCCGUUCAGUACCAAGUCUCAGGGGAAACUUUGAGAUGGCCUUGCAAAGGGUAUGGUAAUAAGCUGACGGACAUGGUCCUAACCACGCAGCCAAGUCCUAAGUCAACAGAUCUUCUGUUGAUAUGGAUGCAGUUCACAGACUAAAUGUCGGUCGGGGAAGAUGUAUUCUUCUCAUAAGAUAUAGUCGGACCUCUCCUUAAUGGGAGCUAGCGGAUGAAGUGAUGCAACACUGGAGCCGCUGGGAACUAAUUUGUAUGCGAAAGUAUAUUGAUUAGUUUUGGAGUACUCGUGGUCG
Conditions: 37 °C
readout: self-splicing fitness (ln)
I only need the number, thanks.

Worked cases, answers included:
sequence content	self-splicing fitness (ln)
UACAAGCAAUAUUACGCUAA	-1.35
GUCGAGCAAUAUUACGCACU	-0.953
GGGUAGCAAUAUUACGCAAG	-0.847
CUCUAGCAAUAUUACGGUCU	-3.06

Q. // self-splicing fitness (ln) lookup, key: "CCUGAGCAAUAUUACGAGCU"
A. -1.95

Q. Consider next the sequence "GCUGAGCAAUAUUACGUUCA" in the same way.
A. -1.81

Q. Consider next the sequence "UGGCAGCAAUAUUACGUCCC" in the same way.
A. -0.074

Q. Consider next the sequence "UAAAAGCAAUAUUACGAGUU" in the same way.
A. -1.91

Q. Consider next the sequence "UUGAAGCAAUAUUACGCUAA" in the same way.
A. -0.109

Q. Consider next the sequence "UCGGAGCAAUAUUACGCUGG" in the same way.
A. -1.26

---

Assay: self-splicing fitness, log relative to wild type (ln ratio); higher = more splicing; Tetrahymena group I intron in knt gene, E. coli kanamycin selection, DiMSum; sequences stand for … in CUCUCU…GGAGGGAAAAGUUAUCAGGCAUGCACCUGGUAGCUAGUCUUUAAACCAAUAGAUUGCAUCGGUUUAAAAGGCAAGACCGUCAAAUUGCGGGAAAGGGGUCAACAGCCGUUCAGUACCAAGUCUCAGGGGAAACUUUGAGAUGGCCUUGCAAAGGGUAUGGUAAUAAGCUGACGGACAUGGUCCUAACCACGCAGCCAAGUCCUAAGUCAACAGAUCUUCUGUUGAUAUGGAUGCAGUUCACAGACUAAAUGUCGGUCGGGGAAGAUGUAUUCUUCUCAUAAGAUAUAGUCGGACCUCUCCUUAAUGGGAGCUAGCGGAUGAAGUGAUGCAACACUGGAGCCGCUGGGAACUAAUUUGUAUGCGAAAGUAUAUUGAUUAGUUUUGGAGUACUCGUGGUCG
Details: 30 °C
readout: self-splicing fitness (ln)
I only need the number, thanks.

Q. // self-splicing fitness (ln) lookup, key: "AAACAGCAAUAUUACGUCAU"
A. -3.39

Q. Consider next the sequence "GGGCAGCAAUAUUACGGGCC" in the same way.
A. -2.96

---

Test: self-splicing fitness, log relative to wild type (ln ratio); higher = more splicing; Tetrahymena group I intron in knt gene, E. coli kanamycin selection, DiMSum; sequences stand for … in CUCUCU…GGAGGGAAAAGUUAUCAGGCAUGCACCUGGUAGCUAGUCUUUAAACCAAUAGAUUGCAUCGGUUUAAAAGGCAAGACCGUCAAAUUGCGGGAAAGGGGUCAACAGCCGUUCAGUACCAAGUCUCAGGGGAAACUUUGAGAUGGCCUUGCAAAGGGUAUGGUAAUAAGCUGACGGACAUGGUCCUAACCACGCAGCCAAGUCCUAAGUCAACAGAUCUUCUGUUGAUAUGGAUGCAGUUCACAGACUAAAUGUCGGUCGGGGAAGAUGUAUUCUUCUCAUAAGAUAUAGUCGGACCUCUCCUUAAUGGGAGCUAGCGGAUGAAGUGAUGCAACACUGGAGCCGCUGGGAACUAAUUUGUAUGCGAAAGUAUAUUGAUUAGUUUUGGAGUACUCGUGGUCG
Settings: 37 °C
readout: self-splicing fitness (ln)
I only need the number, thanks.

Worked cases, answers included:
sequence content	self-splicing fitness (ln)
AUGAAGCAAUAUUACGGAUC	-0.0788
CCGGAGCAAUAUUACGGAAU	-2.96
GUACAGCAAUAUUACGCGAA	-2.22
GGUUAGCAAUAUUACGGAUU	-0.0766
GGAUAGCAAUAUUACGCUGA	-1.19
GUUCAGCAAUAUUACGUCUA	-0.132

Q. // self-splicing fitness (ln) lookup, key: "AUUCAGCAAUAUUACGCGUC"
A. -0.615

Q. Consider next the sequence "CGGCAGCAAUAUUACGACCA" in the same way.
A. 0.682

Q. Consider next the sequence "UAGGAGCAAUAUUACGCUUG" in the same way.
A. 0.65

---

Assay: self-splicing fitness, log relative to wild type (ln ratio); higher = more splicing; Tetrahymena group I intron in knt gene, E. coli kanamycin selection, DiMSum; sequences stand for … in CUCUCU…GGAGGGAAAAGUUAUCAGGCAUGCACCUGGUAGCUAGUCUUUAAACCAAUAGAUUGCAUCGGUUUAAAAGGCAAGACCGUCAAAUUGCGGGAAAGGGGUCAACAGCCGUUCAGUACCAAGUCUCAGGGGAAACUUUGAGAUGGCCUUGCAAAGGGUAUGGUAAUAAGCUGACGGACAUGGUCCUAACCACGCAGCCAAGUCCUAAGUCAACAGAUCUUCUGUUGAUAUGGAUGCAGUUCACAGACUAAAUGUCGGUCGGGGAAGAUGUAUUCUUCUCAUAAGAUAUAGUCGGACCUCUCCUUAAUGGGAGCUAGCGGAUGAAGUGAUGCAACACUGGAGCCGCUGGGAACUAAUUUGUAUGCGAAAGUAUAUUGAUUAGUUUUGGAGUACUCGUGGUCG
Conditions: 30 °C
# if value of self-splicing fitness (ln) reaches -1, tag label 1; if it stays below, tag label 0

sequence content	qualitative label
GCAGAGCAAUAUUACGUCCA	label 0
UCCCAGCAAUAUUACGUAUU	label 0
AUAGAGCAAUAUUACGCGAC	label 0
GGGAAGCAAUAUUACGUCUG	label 1
UAGCAGCAAUAUUACGAGCA	label 0
GACAAGCAAUAUUACGCACA	label 1
AAAAAGCAAUAUUACGCAUG	label 1

Moving on to the next sequence.
Q. Evaluate "AACGAGCAAUAUUACGGGUG" : self-splicing fitness (ln) at minimum -1?
A. label 0
